I'd appreciate it if you could supply logP values for the items below.
experimentNotes: Octanol-water partition coefficient, log P of the compound by shake flask method
Assay type: physicochemical
Lab note: write the figure by itself, no unit.

Note logP for the compound shown: COc1ccc(CCSc2nc3c(c(=O)n(C)c(=O)n3C)n2C)cc1
2.55

Note logP for the compound shown: Cn1c(=O)c2c(nc(SCCCc3ccccc3)n2C)n(C)c1=O
3.3

Note logP for the compound shown: Cn1c(=O)c2c(nc(SCCc3ccc(C(F)(F)F)cc3)n2C)n(C)c1=O
3.21

* * *

Target chain: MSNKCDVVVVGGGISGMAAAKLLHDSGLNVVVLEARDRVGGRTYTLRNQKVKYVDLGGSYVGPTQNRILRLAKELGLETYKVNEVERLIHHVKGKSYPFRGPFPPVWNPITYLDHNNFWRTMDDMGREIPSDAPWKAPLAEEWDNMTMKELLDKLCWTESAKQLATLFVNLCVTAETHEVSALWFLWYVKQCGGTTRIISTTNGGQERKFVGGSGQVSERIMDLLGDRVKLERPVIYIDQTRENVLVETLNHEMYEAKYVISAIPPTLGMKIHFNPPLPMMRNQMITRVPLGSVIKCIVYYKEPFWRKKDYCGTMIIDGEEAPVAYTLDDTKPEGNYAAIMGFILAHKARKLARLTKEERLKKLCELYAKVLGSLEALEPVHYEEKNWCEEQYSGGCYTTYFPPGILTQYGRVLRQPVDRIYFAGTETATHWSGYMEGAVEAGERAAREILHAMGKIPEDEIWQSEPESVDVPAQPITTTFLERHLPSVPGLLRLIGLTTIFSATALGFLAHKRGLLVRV
hey, just use Y if measured IC50 is less than 100 nM, otherwise N

Is it true that IC50 reported for Cn1c(=O)c2c(nc(SCCc3cccc(Cl)c3)n2C)n(C)c1=O is less than 100 nM?
Y

Is it true that IC50 reported for Cn1c(=O)c2c(nc(SCCc3ccc(C(F)(F)F)cc3)n2C)n(C)c1=O is less than 100 nM?
Y

Is it true that IC50 reported for Cn1c(=O)c2c(nc([S+]([O-])CCc3ccc(Cl)cc3)n2C)n(C)c1=O (configuration not stated) is less than 100 nM?
N

Is it true that IC50 reported for Cn1c(=O)c2c(nc(SCc3cccc(Br)c3)n2C)n(C)c1=O is less than 100 nM?
N

Is it true that IC50 reported for COc1cccc(CCSc2nc3c(c(=O)n(C)c(=O)n3C)n2C)c1 is less than 100 nM?
N

Is it true that IC50 reported for Cn1c(=O)c2c(nc([S+]([O-])Cc3ccccc3)n2C)n(C)c1=O (configuration not stated) is less than 100 nM?
N

Is it true that IC50 reported for COc1ccc(CCSc2nc3c(c(=O)n(C)c(=O)n3C)n2C)cc1 is less than 100 nM?
Y

* * *

testedOn: Amine oxidase [flavin-containing] A (Homo sapiens)
Sequence (P21397 whole entry): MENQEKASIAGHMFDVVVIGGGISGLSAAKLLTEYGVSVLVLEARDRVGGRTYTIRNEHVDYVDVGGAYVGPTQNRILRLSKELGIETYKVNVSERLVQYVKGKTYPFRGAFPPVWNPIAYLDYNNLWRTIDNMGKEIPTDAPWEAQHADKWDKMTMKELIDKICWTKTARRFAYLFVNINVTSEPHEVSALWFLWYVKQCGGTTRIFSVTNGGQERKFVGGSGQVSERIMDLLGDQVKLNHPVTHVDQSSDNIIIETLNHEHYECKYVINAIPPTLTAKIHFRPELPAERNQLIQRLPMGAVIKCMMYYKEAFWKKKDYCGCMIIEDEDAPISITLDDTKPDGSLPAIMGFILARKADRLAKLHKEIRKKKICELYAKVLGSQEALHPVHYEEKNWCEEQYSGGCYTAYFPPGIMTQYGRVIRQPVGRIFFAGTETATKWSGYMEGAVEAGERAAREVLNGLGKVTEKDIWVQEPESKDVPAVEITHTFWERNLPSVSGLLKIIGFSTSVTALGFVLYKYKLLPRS
experimentNotes: Inhibition of human recombinant MAO-A expressed in insect cell microsome assessed as 4-hydroxyquinoline formation using kynuramine as substrate after 20 mins by fluorescence spectrophotometry
pIC50: −log10 of the molar value.
# binarize pIC50: threshold 5 inclusive, high side 1, low side 0

hey, is pIC50 for this one >= 5? Cn1c(=O)c2c(nc([S+]([O-])CCc3ccc(Cl)cc3)n2C)n(C)c1=O (stereo unspecified)
0

hey, is pIC50 for this one >= 5? Cn1c(=O)c2c(nc(SCCCc3ccccc3)n2C)n(C)c1=O
1

hey, is pIC50 for this one >= 5? Cn1c(=O)c2c(nc(SCCc3cccc(Cl)c3)n2C)n(C)c1=O
1

hey, is pIC50 for this one >= 5? COc1cccc(CCSc2nc3c(c(=O)n(C)c(=O)n3C)n2C)c1
0

hey, is pIC50 for this one >= 5? Cn1c(=O)c2c(nc(SCCCc3cccc(Cl)c3)n2C)n(C)c1=O
1

Where these numbers come from: ChEMBL document CHEMBL2202975
